# protocol_notes: Extrapolated human dosimetry (OLINDA/EXM, ICRP-89 phantoms)
# protocol_conditions: ICRP 89 Adult Female, extrapolated
readout_name: Absorbed dose (AD average) Gallbladder Wall (mGy/Mbq)
Respond numerically; units are mGy/Mbq and should not be typed.

N#C[C@@H]1CC(F)(F)CN1C(=O)CNC(=O)c1ccnc2ccc(OCCCCNC(=O)CC[C@H](NC(=O)CCC(C(=O)O)N3CCN(CC(=O)[O-])CCN(CC(=O)[O-])CCN(CC(=O)[O-])CC3)C(=O)NCCCCOc3ccc4nccc(C(=O)NCC(=O)N5CC(F)(F)C[C@H]5C#N)c4c3)cc12.[177Lu+3] (stereo partly shown) [[^177Lu]Lu-DOTAGA.Glu.(FAPI)2] has a reported Absorbed dose (AD average) Gallbladder Wall of 3.30E-02

N#C[C@@H]1CC(F)(F)CN1C(=O)CNC(=O)c1ccnc2ccc(OCCCCNC(=O)CC[C@H](NC(=O)CN3CCN(CC(=O)[O-])CCN(CC(=O)[O-])CCN(CC(=O)[O-])CC3)C(=O)NCCCCOc3ccc4nccc(C(=O)NCC(=O)N5CC(F)(F)C[C@H]5C#N)c4c3)cc12.[177Lu+3] [[^177Lu]Lu-DO3A.Glu.(FAPI)2] has a reported Absorbed dose (AD average) Gallbladder Wall of 2.80E-02

N#C[C@@H]1CC(F)(F)CN1C(=O)CNC(=O)c1ccnc2ccc(OCCCCNC(=O)CC[C@H](NC(=O)CN3CCN(CC(=O)[O-])CCN(CC(=O)[O-])CCN(CC(=O)[O-])CC3)C(=O)NCCCCOc3ccc4nccc(C(=O)NCC(=O)N5CC(F)(F)C[C@H]5C#N)c4c3)cc12.[161Tb+3] [[^161Tb]Tb-DO3A.Glu.(FAPI)2] has a reported Absorbed dose (AD average) Gallbladder Wall of 3.79E-02

N#C[C@@H]1CC(F)(F)CN1C(=O)CNC(=O)c1ccnc2ccc(OCCCCNC(=O)CC[C@H](NC(=O)CCC(C(=O)O)N3CCN(CC(=O)[O-])CCN(CC(=O)[O-])CCN(CC(=O)[O-])CC3)C(=O)NCCCCOc3ccc4nccc(C(=O)NCC(=O)N5CC(F)(F)C[C@H]5C#N)c4c3)cc12.[161Tb+3] (stereo partly shown) [[^161Tb]Tb-DOTAGA.Glu.(FAPI)2] has a reported Absorbed dose (AD average) Gallbladder Wall of 4.47E-02

----------
# protocol_notes: Extrapolated human dosimetry (OLINDA/EXM, ICRP-89 phantoms)
# protocol_conditions: ICRP 89 Adult Male, extrapolated
Exercise: for every item that follows, state its recorded Absorbed dose (AD average) Gallbladder Wall.
Respond numerically; units are mGy/Mbq and should not be typed.

N#C[C@@H]1CC(F)(F)CN1C(=O)CNC(=O)c1ccnc2ccc(OCCCCNC(=O)CC[C@H](NC(=O)CN3CCN(CC(=O)[O-])CCN(CC(=O)[O-])CCN(CC(=O)[O-])CC3)C(=O)NCCCCOc3ccc4nccc(C(=O)NCC(=O)N5CC(F)(F)C[C@H]5C#N)c4c3)cc12.[161Tb+3] [[^161Tb]Tb-DO3A.Glu.(FAPI)2] has a reported Absorbed dose (AD average) Gallbladder Wall of 3.02E-02

N#C[C@@H]1CC(F)(F)CN1C(=O)CNC(=O)c1ccnc2ccc(OCCCCNC(=O)CC[C@H](NC(=O)CCC(C(=O)O)N3CCN(CC(=O)[O-])CCN(CC(=O)[O-])CCN(CC(=O)[O-])CC3)C(=O)NCCCCOc3ccc4nccc(C(=O)NCC(=O)N5CC(F)(F)C[C@H]5C#N)c4c3)cc12.[161Tb+3] (stereo partly shown) [[^161Tb]Tb-DOTAGA.Glu.(FAPI)2] has a reported Absorbed dose (AD average) Gallbladder Wall of 3.50E-02

N#C[C@@H]1CC(F)(F)CN1C(=O)CNC(=O)c1ccnc2ccc(OCCCCNC(=O)CC[C@H](NC(=O)CN3CCN(CC(=O)[O-])CCN(CC(=O)[O-])CCN(CC(=O)[O-])CC3)C(=O)NCCCCOc3ccc4nccc(C(=O)NCC(=O)N5CC(F)(F)C[C@H]5C#N)c4c3)cc12.[177Lu+3] [[^177Lu]Lu-DO3A.Glu.(FAPI)2] has a reported Absorbed dose (AD average) Gallbladder Wall of 2.20E-02

N#C[C@@H]1CC(F)(F)CN1C(=O)CNC(=O)c1ccnc2ccc(OCCCCNC(=O)CC[C@H](NC(=O)CCC(C(=O)O)N3CCN(CC(=O)[O-])CCN(CC(=O)[O-])CCN(CC(=O)[O-])CC3)C(=O)NCCCCOc3ccc4nccc(C(=O)NCC(=O)N5CC(F)(F)C[C@H]5C#N)c4c3)cc12.[177Lu+3] (stereo partly shown) [[^177Lu]Lu-DOTAGA.Glu.(FAPI)2] has a reported Absorbed dose (AD average) Gallbladder Wall of 2.49E-02
